Test system: rice
Assay: Low temperature assay on rice seedlings
Type: in vivo
Details: 0.01 mg/l, 2 °C, 9 days
Excerpt: According to a low temperature assay, we measured parameters including plant height, number of leaf, area of leaf, number of tiller, weight of root at low temperature to completely determine effects of the natural brassinolide analogues on the resistance to low temperature of a plant. The natural brassinolide analogues, BR1, BR2, BR3, BR4, BR5 and BR6, used herein, were those prepared by the method of Example 1. […]
Overview of reported Height across a group of compounds:
Please give a number only; it is taken to be in cm.

>>> test_result("CC(C)(O)CC[C@@H](O)[C@](C)(O)[C@H]1CC[C@@]2(O)[C@@H]3CC(=O)[C@@H]4C[C@@H](O)[C@@H](O)C[C@]4(C)[C@H]3CC[C@]12C [BR6]")
7.3
>>> test_result("CC(C)C[C@@H](O)[C@H](O)[C@@H](C)[C@H]1CCC2C3CC(=O)C4C[C@H](O)[C@H](O)C[C@]4(C)C3CC[C@@]21C (stereo partly drawn) [BR5]")
7.5
>>> test_result("CC(C)[C@H](C)[C@@H](O)[C@H](O)[C@@H](C)[C@H]1CCC2C3CC(=O)C4C[C@H](O)CC[C@]4(C)C3CC[C@@]21C (stereo partly drawn) [BR4]")
7.4

Find the measured Height of CC(C)[C@H](C)[C@@H](O)[C@H](O)[C@@H](C)[C@H]1CCC2C3COC(=O)C4C[C@H](O)[C@H](O)C[C@]4(C)C3CC[C@@]21C (stereo partly drawn) [BR1] and report it.
7.3

Find the measured Height of CC[C@@H](C(C)C)[C@@H](O)[C@H](O)[C@@H](C)[C@H]1CCC2C3COC(=O)C4C[C@H](O)[C@H](O)C[C@]4(C)C3CC[C@@]21C (stereo partly drawn) [BR2] and report it.
7.5

Find the measured Height of C=C(C(C)C)[C@@H](O)[C@H](O)[C@@H](C)[C@H]1CCC2C3COC(=O)C4C[C@H](O)[C@H](O)C[C@]4(C)C3CC[C@@]21C (stereo partly drawn) [BR3] and report it.
7.4

----------
Overview of reported Number of leaf across a group of compounds:
Test system: rice
Assay: Low temperature assay on rice seedlings
Type: in vivo
Conditions: 0.001 mg/l, 4 °C, 12 days
Number, no unit, nothing else.

// known answers, use as guide
>>> test_result("CC(C)(O)CC[C@@H](O)[C@](C)(O)[C@H]1CC[C@@]2(O)[C@@H]3CC(=O)[C@@H]4C[C@@H](O)[C@@H](O)C[C@]4(C)[C@H]3CC[C@]12C [BR6]")
3
>>> test_result("C=C(C(C)C)[C@@H](O)[C@H](O)[C@@H](C)[C@H]1CCC2C3COC(=O)C4C[C@H](O)[C@H](O)C[C@]4(C)C3CC[C@@]21C (stereo partly drawn) [BR3]")
3

Find the measured Number of leaf of CC(C)C[C@@H](O)[C@H](O)[C@@H](C)[C@H]1CCC2C3CC(=O)C4C[C@H](O)[C@H](O)C[C@]4(C)C3CC[C@@]21C (stereo partly drawn) [BR5] and report it.
3

----------
Overview of reported Area of leaf across a group of molecules:
Test system: rice
Assay: Low temperature assay on rice seedlings
Type: in vivo
Conditions: 0.001 mg/l, 1 °C, 12 days
Please give a number only; it is taken to be in cm^2.

// known answers, use as guide
>>> test_result("CC(C)(O)CC[C@@H](O)[C@](C)(O)[C@H]1CC[C@@]2(O)[C@@H]3CC(=O)[C@@H]4C[C@@H](O)[C@@H](O)C[C@]4(C)[C@H]3CC[C@]12C [BR6]")
13
>>> test_result("CC[C@@H](C(C)C)[C@@H](O)[C@H](O)[C@@H](C)[C@H]1CCC2C3COC(=O)C4C[C@H](O)[C@H](O)C[C@]4(C)C3CC[C@@]21C (stereo partly drawn) [BR2]")
13
>>> test_result("CC(C)C[C@@H](O)[C@H](O)[C@@H](C)[C@H]1CCC2C3CC(=O)C4C[C@H](O)[C@H](O)C[C@]4(C)C3CC[C@@]21C (stereo partly drawn) [BR5]")
13
>>> test_result("CC(C)[C@H](C)[C@@H](O)[C@H](O)[C@@H](C)[C@H]1CCC2C3COC(=O)C4C[C@H](O)[C@H](O)C[C@]4(C)C3CC[C@@]21C (stereo partly drawn) [BR1]")
13
>>> test_result("C=C(C(C)C)[C@@H](O)[C@H](O)[C@@H](C)[C@H]1CCC2C3COC(=O)C4C[C@H](O)[C@H](O)C[C@]4(C)C3CC[C@@]21C (stereo partly drawn) [BR3]")
13

Let us examine a further case.
Find the measured Area of leaf of CC(C)[C@H](C)[C@@H](O)[C@H](O)[C@@H](C)[C@H]1CCC2C3CC(=O)C4C[C@H](O)CC[C@]4(C)C3CC[C@@]21C (stereo partly drawn) [BR4] and report it.
13.6

----------
Overview of reported Height across a group of molecules:
Tested on: rice
Experiment: Low temperature assay on rice seedlings
Format: in vivo
Settings: 0.0001 mg/l, 2 °C, 12 days
Please give a number only; it is taken to be in cm.

// known answers, use as guide
>>> test_result("CC(C)(O)CC[C@@H](O)[C@](C)(O)[C@H]1CC[C@@]2(O)[C@@H]3CC(=O)[C@@H]4C[C@@H](O)[C@@H](O)C[C@]4(C)[C@H]3CC[C@]12C")
7.5
>>> test_result("CC(C)[C@H](C)[C@@H](O)[C@H](O)[C@@H](C)[C@H]1CCC2C3COC(=O)C4C[C@H](O)[C@H](O)C[C@]4(C)C3CC[C@@]21C (stereo partly drawn)")
7.5

Let us examine a further case.
Enter measured Height, system rice, for the molecule shown: CC[C@@H](C(C)C)[C@@H](O)[C@H](O)[C@@H](C)[C@H]1CCC2C3COC(=O)C4C[C@H](O)[C@H](O)C[C@]4(C)C3CC[C@@]21C (stereo partly drawn)
7.4

----------
Overview of reported Weight of root across a group of compounds:
System: rice
Experiment: Low temperature assay on rice seedlings
Format: in vivo
Settings: 0.0001 mg/l, 5 °C, 12 days

// known answers, use as guide
>>> test_result("CC(C)(O)CC[C@@H](O)[C@](C)(O)[C@H]1CC[C@@]2(O)[C@@H]3CC(=O)[C@@H]4C[C@@H](O)[C@@H](O)C[C@]4(C)[C@H]3CC[C@]12C [BR6]")
"3.0 g"
>>> test_result("C=C(C(C)C)[C@@H](O)[C@H](O)[C@@H](C)[C@H]1CCC2C3COC(=O)C4C[C@H](O)[C@H](O)C[C@]4(C)C3CC[C@@]21C (stereo partly drawn) [BR3]")
"3.0 g"
>>> test_result("CC(C)C[C@@H](O)[C@H](O)[C@@H](C)[C@H]1CCC2C3CC(=O)C4C[C@H](O)[C@H](O)C[C@]4(C)C3CC[C@@]21C (stereo partly drawn) [BR5]")
"3.0 g"

Find the measured Weight of root of CC[C@@H](C(C)C)[C@@H](O)[C@H](O)[C@@H](C)[C@H]1CCC2C3COC(=O)C4C[C@H](O)[C@H](O)C[C@]4(C)C3CC[C@@]21C (stereo partly drawn) [BR2] and report it.
3.0 g

Find the measured Weight of root of CC(C)[C@H](C)[C@@H](O)[C@H](O)[C@@H](C)[C@H]1CCC2C3COC(=O)C4C[C@H](O)[C@H](O)C[C@]4(C)C3CC[C@@]21C (stereo partly drawn) [BR1] and report it.
3.0 g

Find the measured Weight of root of CC(C)[C@H](C)[C@@H](O)[C@H](O)[C@@H](C)[C@H]1CCC2C3CC(=O)C4C[C@H](O)CC[C@]4(C)C3CC[C@@]21C (stereo partly drawn) [BR4] and report it.
2.9 g

----------
Overview of reported Area of leaf across a group of compounds:
System: rice
Test: Low temperature assay on rice seedlings
Type: in vivo
Conditions: 0.001 mg/l, 5 °C, 6 days
Please give a number only; it is taken to be in cm^2.

>>> test_result("CC[C@@H](C(C)C)[C@@H](O)[C@H](O)[C@@H](C)[C@H]1CCC2C3COC(=O)C4C[C@H](O)[C@H](O)C[C@]4(C)C3CC[C@@]21C (stereo partly drawn)")
14
>>> test_result("CC(C)[C@H](C)[C@@H](O)[C@H](O)[C@@H](C)[C@H]1CCC2C3CC(=O)C4C[C@H](O)CC[C@]4(C)C3CC[C@@]21C (stereo partly drawn)")
14
>>> test_result("C=C(C(C)C)[C@@H](O)[C@H](O)[C@@H](C)[C@H]1CCC2C3COC(=O)C4C[C@H](O)[C@H](O)C[C@]4(C)C3CC[C@@]21C (stereo partly drawn)")
14
>>> test_result("CC(C)(O)CC[C@@H](O)[C@](C)(O)[C@H]1CC[C@@]2(O)[C@@H]3CC(=O)[C@@H]4C[C@@H](O)[C@@H](O)C[C@]4(C)[C@H]3CC[C@]12C")
14.6
>>> test_result("CC(C)C[C@@H](O)[C@H](O)[C@@H](C)[C@H]1CCC2C3CC(=O)C4C[C@H](O)[C@H](O)C[C@]4(C)C3CC[C@@]21C (stereo partly drawn)")
14

Let us examine a further case.
Find the measured Area of leaf of CC(C)[C@H](C)[C@@H](O)[C@H](O)[C@@H](C)[C@H]1CCC2C3COC(=O)C4C[C@H](O)[C@H](O)C[C@]4(C)C3CC[C@@]21C (stereo partly drawn) and report it.
14.6
